- measurement.target: recombinant human MMP-13 (Homo sapiens, UniProt P45452)
- procedure.details: In vitro metalloprotease inhibition, fluorogenic peptide assay
- condition.parameters: APMA-activated enzyme, MCA peptide substrate 4 μM, room temperature, pH 7.5
pIC50: −log10 of the molar value.
observation.type: pIC50

Some compounds with recorded pIC50:
| compound | pIC50 |
| --- | --- |
| Cc1ccc(NC(=O)Nc2ccc(S(=O)(=O)CC(C)(O)C(=O)NO)cc2)cc1 (centres unmarked) | 5.44 |
| CC(O)(CS(=O)(=O)c1ccc(NC(=O)c2cccc([N+](=O)[O-])c2)cc1)C(=O)NO (centres unmarked) | 5.80 |
| CC(O)(CS(=O)(=O)c1ccc(NC(=O)c2cccc(F)c2)cc1)C(=O)NO (centres unmarked) | 7.10 |
| Cc1ccc(Oc2ccc(S(=O)(=O)CC(C)(O)C(=O)NO)cc2)cc1C (centres unmarked) | 8.89 |
| Cc1ccc(Oc2ccc(S(=O)(=O)CC(O)(CO)C(=O)NO)cc2)cc1C (centres unmarked) | 9.40 |
| C[C@](O)(CS(=O)(=O)c1ccc(Oc2ccccc2)cc1)C(=O)NO | 7.67 |

I. CC(O)(CS(=O)(=O)c1ccc(Oc2ccccc2)cc1)C(=O)NO (centres unmarked)
II. CC(O)(CS(=O)(=O)c1ccc(NC(=O)c2ccc(F)c(F)c2)cc1)C(=O)NO (centres unmarked)
q: Lab note: check whether I or II shows the higher recorded pIC50. Refer to your chosen entry by its label in the reply.
a: I
(I: 8.96, II: 7.10)

###

- measurement.target: recombinant human MMP-13 (Homo sapiens, UniProt P45452)
- procedure.details: In vitro metalloprotease inhibition, fluorogenic peptide assay
- condition.parameters: APMA-activated enzyme, MCA peptide substrate 4 μM, room temperature, pH 7.5
pIC50: −log10 of the molar value.
observation.type: pIC50

| compound | pIC50 |
| --- | --- |
| O=C(NO)[C@H](O)CS(=O)(=O)c1ccc(Oc2ccccc2)cc1 | 8.30 |
| O=C(NO)C(O)(CO)CS(=O)(=O)c1ccc(Sc2ccccc2)cc1 (stereo not drawn) | 8.30 |
| O=C(Nc1ccc(S(=O)(=O)CC(O)C(=O)NO)cc1)c1ccccc1 (stereo not drawn) | 6.66 |
| O=C(NO)C(O)CS(=O)(=O)c1ccc(Sc2ccccc2)cc1 (stereo not drawn) | 8.43 |
| CC(O)(CS(=O)(=O)c1ccc(NC(=O)c2ccc(Cl)nc2)cc1)C(=O)NO (stereo not drawn) | 6.55 |

P. COc1cccc(C(=O)Nc2ccc(S(=O)(=O)CC(C)(O)C(=O)NO)cc2)c1 (stereo not drawn)
Q. O=C(NO)C(O)(CO)CS(=O)(=O)c1ccc(Oc2ccccc2)cc1 (stereo not drawn)
q: Which of the two items, P and Q , has the greater recorded pIC50? Lab note: record the label of whichever item you select.
a: Q
(Q: 8.92, P: 6.18)

P. CC(O)(CS(=O)(=O)c1ccc(NC(=O)c2cccc(Cl)c2)cc1)C(=O)NO (stereo not drawn)
Q. CC(O)(CS(=O)(=O)c1ccc(NC(=O)c2ccc(Cl)cc2)cc1)C(=O)NO (stereo not drawn)
q: Please let me know which one, P or Q , has a lower measured pIC50 value. // respond with label for picked entry
a: P

###

pIC50: −log10 of the molar value.
In what follows, each item is paired with its pIC50 for UniProt P08254.
Sequence (P08254 100-477, species assumed): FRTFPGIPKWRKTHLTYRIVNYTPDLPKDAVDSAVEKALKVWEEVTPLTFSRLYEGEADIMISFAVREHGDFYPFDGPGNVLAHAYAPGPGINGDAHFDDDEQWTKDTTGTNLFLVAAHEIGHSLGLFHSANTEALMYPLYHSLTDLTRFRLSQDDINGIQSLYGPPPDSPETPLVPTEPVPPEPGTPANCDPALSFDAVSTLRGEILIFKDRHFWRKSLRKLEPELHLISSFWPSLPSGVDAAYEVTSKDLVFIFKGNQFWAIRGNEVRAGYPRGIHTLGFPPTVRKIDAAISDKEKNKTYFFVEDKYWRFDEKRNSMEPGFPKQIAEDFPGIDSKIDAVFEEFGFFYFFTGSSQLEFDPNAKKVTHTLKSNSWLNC
observation.type: pIC50

Past entries and their recorded results:
| compound | pIC50 |
| --- | --- |
| Cl.O=C(NO)C(O)(CN1CCOCC1)CS(=O)(=O)c1ccc(Oc2ccccc2)cc1 (stereo not shown) [Example 3, monohydrochloride] | 6.78 |
| Cc1ccc(Oc2ccc(S(=O)(=O)CC(O)(CO)C(=O)NO)cc2)cc1C (stereo not shown) [Example 4] | 7.31 |

P. Cc1ccc(Oc2ccc(S(=O)(=O)CC(C)(O)C(=O)NO)cc2)cc1C (stereo not shown) [Example 5]
Q. O=C(NO)C(O)(CO)CS(=O)(=O)c1ccc(Oc2ccccc2)cc1 (stereo not shown) [Example 2]
q: Returns the identifier with the smallest measured pIC50 among P and Q . Your answer should be the label of the entry you select.
a: Q
